Where these numbers come from: patent US11634425B2

assay: in vitro; type: in vitro ADME; details: microsomes, pH 7.4; human; 1 μM compound, 0.5 mg/mL protein; read-out: Liver Microsomal Stability t1/2
measure: half-life at 1 μM (h)

molecule: O=C(N[C@H]1N=C(c2ccccc2)c2cccc(F)c2NC1=O)c1c(-c2ccccc2F)nn2cccnc12 [Example 3]
uom: h
readoutQualifier: =
measuredResult: 5.5
--
molecule: Cc1nn2cc(-c3ccoc3)cnc2c1C(=O)N[C@H]1N=C(c2ccccc2)c2cccc(F)c2NC1=O [Example 24]
uom: h
readoutQualifier: >
measuredResult: 2.33
--
molecule: COc1ccc2nc(-c3ccccc3)c(C(=O)N[C@H]3N=C(c4ccccc4)c4cccc(F)c4NC3=O)n2n1 [Example 113]
uom: h
readoutQualifier: =
measuredResult: 8.63

====

Test: in vitro
Format: in vitro ADME
Conditions: microsomes, pH 7.4; rat; 1 μM compound, 0.5 mg/mL protein; read-out: Liver Microsomal Stability t1/2
Method: Compounds were subjected to the following assays to investigate liver microsomal stability and hepatocyte stability. Microsomal Incubation: Experimental Procedure Pooled liver microsomes were purchased from a reputable commercial supplier and stored at −80° C. prior to use. […] Following protein precipitation, the sample supernatants were combined in cassettes of up to 4 compounds, internal standard added, and samples analysed by LC-MS/MS. […]
# label = bin(measured half-life at 1 μM), where bins are bottom end (below 1 h), midrange (1 h to below 2 h), top end (2 h or more)

compound: CCc1ccc(-c2nn3cccnc3c2C(=O)N[C@H]2N=C(c3ccccc3)c3cccc(F)c3NC2=O)c(C)n1 [Example 57]
discreteLabel: bottom end

compound: COc1ccc2nc(-c3ccccc3)c(C(=O)N[C@H]3N=C(c4ccccc4)c4cccc(F)c4NC3=O)n2n1 [Example 113]
discreteLabel: midrange

compound: Cc1cnc(F)c(-c2nn3cccnc3c2C(=O)N[C@H]2N=C(c3ccccc3)c3cccc(F)c3NC2=O)c1 [Example 32]
discreteLabel: midrange

compound: O=C(N[C@H]1N=C(c2ccccc2)c2ccccc2NC1=O)c1c(-c2ccccc2)nn2cccnc12 [Example 12]
discreteLabel: top end

compound: O=C(N[C@H]1N=C(c2ccccc2)c2cccc(F)c2NC1=O)c1c(-c2cccc(F)c2F)nn2cccnc12 [Example 42]
discreteLabel: top end

compound: CN1CC(Oc2ccc3nc(-c4ccccc4F)c(C(=O)N[C@H]4N=C(c5ccccc5)c5cccc(F)c5NC4=O)n3n2)C1 [Example 108]
discreteLabel: midrange

compound: O=C(N[C@H]1N=C(c2ccccc2)c2cccc(F)c2NC1=O)c1c(-c2cncc(Cl)c2)nn2cccnc12 [Example 28]
discreteLabel: top end

compound: COc1ccc2nc(-c3ccncc3F)c(C(=O)N[C@H]3N=C(c4ccccc4)c4cccc(F)c4NC3=O)n2n1 [Example 119]
discreteLabel: bottom end

compound: Cc1ccn2nc(-c3ccc(F)cc3F)c(C(=O)N[C@H]3N=C(c4ccccc4)c4cccc(F)c4NC3=O)c2n1 [Example 36]
discreteLabel: bottom end

compound: O=C(N[C@H]1N=C(c2ccccc2)c2ccccc2NC1=O)c1c(-c2ccccc2)nc2cccnn12 [Example 87]
discreteLabel: midrange

compound: Cc1cncc(-c2nn3cccnc3c2C(=O)N[C@H]2N=C(c3ccccc3)c3cccc(F)c3NC2=O)c1 [Example 64]
discreteLabel: midrange

====

assay: in vivo; type: in vivo; conditions: in vivo; male Beagle dog, PO 3 or 4 mg/kg; read-out: PO AUClast
AUC(0-t) reference
measure: AUC(0-t) (ng·h/mL)

molSmiles: O=C(N[C@H]1N=C(c2ccccc2)c2ccccc2NC1=O)c1c(-c2ccccc2F)nn2cccnc12
measure: AUC(0-t)
measuredResult: 22300
//
molSmiles: CCc1ccc(-c2nn3cccnc3c2C(=O)N[C@H]2N=C(c3ccccc3)c3cccc(F)c3NC2=O)cn1
measure: AUC(0-t)
measuredResult: 20900
//
molSmiles: Cc1nc2ccc(Cl)nn2c1C(=O)N[C@H]1N=C(c2ccccc2)c2cccc(F)c2NC1=O
measure: AUC(0-t)
measuredResult: 43700
//
molSmiles: Cc1ccc(-c2nn3cccnc3c2C(=O)N[C@H]2N=C(c3ccccc3)c3cccc(F)c3NC2=O)cn1
measure: AUC(0-t)
measuredResult: 13300
